This document collects pKi values reported for Coll3 (Homo sapiens, UniProt P45452).
Scale note: pKi = -log10(concentration in M).

>>> print(df.to_string())
                                   molecule  data_value
0  CC1(C)SCCN(S(=O)(=O)c2ccc(Oc3ccc(Cl)cc3)cc2)[C@H]1C(=O)NO       12.00
1  CN1CCN(S(=O)(=O)c2ccc(Oc3ccccc3)cc2)[C@@H](C(=O)NO)C1        9.80

Problem: Quick one: pKi of O=C(NO)[C@H]1COCCN1S(=O)(=O)c1ccc(Oc2ccc(Cl)cc2)cc1 ?
Solution: 10.68

Problem: Another molecule to check: CC(=O)N1CCN(S(=O)(=O)c2ccc(Oc3ccccc3)cc2)C(C(=O)NO)C1 (racemic)
Solution: 10.30

Problem: Another molecule to check: O=C(NO)C1C[S+]([O-])CCN1S(=O)(=O)c1ccc(Oc2ccc(F)cc2)cc1 (racemic)
Solution: 10.80

Problem: Another molecule to check: Cn1cnc(S(=O)(=O)N2CCN(S(=O)(=O)c3ccc(Oc4ccc(Cl)cc4)cc3)[C@@H](C(=O)NO)C2)c1
Solution: 11.22

Problem: Another molecule to check: CC(C)(C)OC(=O)N1CCN(S(=O)(=O)c2ccc(Oc3ccccn3)cc2)C(C(=O)NO)C1 (racemic)
Solution: 8.79
